These measurements were taken from patent US20220280644A1.

# Assay procedure: Photostationary state (PSS) determination
# Type: physicochemical
# Condition summary: estimated, UV/Vis spectroscopy in DMSO
# Source text: […] In the latter case, the pure Z isomer spectrum was estimated using methods described in previous publications.
Measured metric: 420 nm PSS (% E)

| Smiles str | U | 420 nm PSS |
| --- | --- | --- |
| N#Cc1ccc(/N=N/c2ccc(NC(=O)c3ccco3)cc2NC(=O)c2ccco2)cc1 | % E | 32 |
| O=C(Nc1ccc(/N=N/c2ccc([N+](=O)[O-])cc2)c(NC(=O)c2ccco2)c1)c1ccco1 | % E | 42 |

a. O=C(Nc1ccc(/N=N/c2ccccc2)c(NC(=O)c2cccs2)c1)c1cccs1
b. O=C(Nc1ccccc1/N=N/c1ccccc1)c1ccco1
### Prompt // task: argmin of 420 nm PSS over [ a , b ] Reply with the label of the item you choose.
### Response a

a. O=C(Nc1ccc(/N=N/c2ccc([N+](=O)[O-])cc2)c(NC(=O)c2cccs2)c1)c1cccs1
b. N#Cc1ccc(/N=N/c2ccc(NC(=O)c3cccs3)cc2NC(=O)c2cccs2)cc1
### Prompt Hey, which is lower on measured 420 nm PSS, a or b ? Output the label that corresponds to your choice.
### Response b
(b: 30 % E, a: 46 % E)

----------
# Assay procedure: Photostationary state (PSS) determination
# Format: physicochemical
# Condition summary: estimated, UV/Vis spectroscopy in DMSO
Measured metric: 365 nm PSS (% E)

| Smiles str | Numeric result |
| --- | --- |
| N#Cc1ccc(/N=N/c2ccc(NC(=O)c3cccs3)cc2NC(=O)c2cccs2)cc1 | 41 |

I. O=C(Nc1ccc(/N=N/c2ccc([N+](=O)[O-])cc2)c(NC(=O)c2ccco2)c1)c1ccco1
II. O=C(Nc1ccc(/N=N/c2ccccc2)c(NC(=O)c2cccs2)c1)c1cccs1
### Prompt Pick one: I or II . Which has the bigger 365 nm PSS number? Reply briefly: the label of your chosen item.
### Response I
(I: 66 % E, II: 22 % E)

I. N#Cc1ccc(/N=N/c2ccc(NC(=O)c3ccco3)cc2NC(=O)c2ccco2)cc1
II. O=C(Nc1ccc(/N=N/c2ccc([N+](=O)[O-])cc2)c(NC(=O)c2cccs2)c1)c1cccs1
### Prompt Hi there! Just curious which has the higher 365 nm PSS between I and II . Could you answer with the label of the item you picked?
### Response II
